Overview of recorded IC50 for various compounds
# testedOn: KRAS G12V-BRAF complex (Homo sapiens (Human), UniProt P01116+P62937, G12V)
# Sequence (P01116-2 other isoform, or with tags, fused parts or gaps G12V): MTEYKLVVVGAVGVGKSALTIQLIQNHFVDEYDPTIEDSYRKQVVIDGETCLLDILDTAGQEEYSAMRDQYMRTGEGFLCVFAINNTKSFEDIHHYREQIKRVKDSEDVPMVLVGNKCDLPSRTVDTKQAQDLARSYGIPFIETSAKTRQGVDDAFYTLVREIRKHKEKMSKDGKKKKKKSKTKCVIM
# Sequence (P62937 whole entry): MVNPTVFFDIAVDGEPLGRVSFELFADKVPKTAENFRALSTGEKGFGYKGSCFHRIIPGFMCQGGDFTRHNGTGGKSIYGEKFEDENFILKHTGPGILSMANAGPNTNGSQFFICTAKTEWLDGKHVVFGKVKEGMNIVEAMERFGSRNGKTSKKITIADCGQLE
# runDescription: KRAS-BRAF with CYPA (500 nM) interaction assay (TR-FRET), G12V
Quick reminder: number only, in nM, skip the unit.

| compound | IC50 (nM) |
| --- | --- |
| CO[C@@H](C)c1ncc(N2CCN(CC(F)(F)F)CC2)cc1-c1c2c3cc(c(F)cc3n1CC(F)(F)F)-c1csc(n1)C[C@H](NC(=O)[C@H](C(C)C)N(C)C(=O)N1CC(N(C)C)C1)C(=O)N1CCC[C@H](N1)C(=O)OCC(C)(C)C2 (atropisomer, axis not shown; (M)) | 85 |

Q: Provide the documented IC50 with KRAS G12V-BRAF complex (Homo sapiens (Human), UniProt P01116+P62937, G12V) as the system for CO[C@@H](C)c1ncc(N2CCOCC2)cc1-c1c2c3cc(c(F)cc3n1CC(F)(F)F)-c1csc(n1)C[C@H](NC(=O)[C@H](C(C)C)N(C)C(=O)N1CCOCC1)C(=O)N1CCC[C@H](N1)C(=O)OCC(C)(C)C2 (atropisomer, axis not shown; (M))
Ans: 59
